# tgt: STAT5b Phe633Ala (Homo sapiens, UniProt P51692, F633A)
# Sequence (P51692 whole entry F633A): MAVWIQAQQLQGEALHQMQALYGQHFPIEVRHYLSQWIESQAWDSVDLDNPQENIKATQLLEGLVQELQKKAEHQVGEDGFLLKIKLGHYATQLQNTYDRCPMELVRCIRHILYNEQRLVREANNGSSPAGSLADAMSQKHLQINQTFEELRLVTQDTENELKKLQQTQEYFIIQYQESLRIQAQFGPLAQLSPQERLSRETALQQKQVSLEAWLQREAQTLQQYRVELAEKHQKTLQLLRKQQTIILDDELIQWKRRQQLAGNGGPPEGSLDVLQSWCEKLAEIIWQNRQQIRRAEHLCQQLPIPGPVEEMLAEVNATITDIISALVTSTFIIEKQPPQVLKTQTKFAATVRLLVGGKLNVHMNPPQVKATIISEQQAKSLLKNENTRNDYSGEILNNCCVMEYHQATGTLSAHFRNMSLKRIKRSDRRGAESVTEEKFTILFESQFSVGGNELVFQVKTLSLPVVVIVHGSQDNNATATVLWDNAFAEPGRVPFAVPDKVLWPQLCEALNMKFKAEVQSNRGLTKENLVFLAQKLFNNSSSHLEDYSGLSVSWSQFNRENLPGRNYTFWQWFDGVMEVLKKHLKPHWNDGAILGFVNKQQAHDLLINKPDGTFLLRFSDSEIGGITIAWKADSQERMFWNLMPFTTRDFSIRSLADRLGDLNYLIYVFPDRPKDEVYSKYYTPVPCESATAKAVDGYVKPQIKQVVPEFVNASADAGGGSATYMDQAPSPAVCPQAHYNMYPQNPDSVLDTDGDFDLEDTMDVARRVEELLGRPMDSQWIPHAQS
# assay_procedure: Isothermal titration calorimetry, STAT5b Phe633Ala
# run_parameters: ITC, 25 °C, n = 2
measured_metric: Kd (nM)
Field: numeric (nM). Do not append units.

Bench note: what Kd did `O=C(COc1ccc(C(=O)Nc2ccc(Oc3ccccc3)cc2)cc1)NCc1ccc(OP(=O)(O)O)c(OP(=O)(O)O)c1` show?
1650

###

# tgt: STAT5b SH2 domain (Homo sapiens, UniProt P51692)
# Sequence (P51692 whole entry, the tested form may be a part): as the sequence (P51692 whole entry F633A) above, with A633F counted along it
# assay_procedure: Fluorescence polarization assay, STAT5b SH2 domain
# Assay type: binding
# run_parameters: abstract, rounded
measured_metric: pKi
In simple prose, pKi is minus the logarithm base ten of a concentration in moles per litre.

Bench note: what pKi did `O=C(COc1ccc(C(=O)Nc2ccc(Oc3ccccc3)cc2)cc1)NCc1ccc(OP(=O)(O)O)c(OP(=O)(O)O)c1` show?
8.05

The measured values listed here are drawn from paper PMC5429769.
